conditions: siRNA; also: test system not given here
HELM strings list units from the 5' end as sugar, base in round brackets, then linkage (d deoxyribose, r ribose, m 2'-O-methyl, p phosphodiester). Strings are as the collection lists them, not checked against the first reports. ss, as = sense and antisense strand; [una] = unlocked nucleic acid
measured.endpoint: target mRNA knockdown
# output: number + unit

{"columns": ["substance", "target mRNA knockdown"],
 "data": [
  ["RNA1{r(G)p.r(G)p.r(A)p.r(C)p.r(A)p.r(U)p.r(U)p.r(C)p.r(A)p.r(G)p.r(A)p.r(A)p.r(C)p.r(A)p.r(A)p.r(G)p.r(A)p.r(A)p.r(A)p.[una](U)p.[una](U)}|RNA2{r(U)p.r(U)p.r(U)p.r(C)p.r(U)p.r(U)p.[una](G)p.r(U)p.r(U)p.r(C)p.r(U)p.r(G)p.r(A)p.r(A)p.r(U)p.r(G)p.r(U)p.r(C)p.r(C)p.[una](U)p.[una](U)}$$$RNA1{StrandType:ss}|RNA2{StrandType:as}$", "78%"]
]}

Now for another entry.
Query: Which target mRNA knockdown value belongs to `RNA1{m(U)p.r(U)p.m(A)p.r(A)p.m(G)p.r(G)p.m(A)p.r(G)p.m(A)p.r(A)p.m(G)p.r(C)p.m(U)p.r(G)p.m(A)p.r(C)p.m(G)p.r(G)p.m(C)p.r(T)p.r(T)}|RNA2{m(G)p.r(C)p.r(C)p.m(G)p.r(U)p.r(C)p.r(A)p.m(G)p.r(C)p.r(U)p.r(U)p.r(C)p.r(U)p.r(C)p.r(C)p.r(U)p.r(U)p.r(A)p.r(A)p.r(T)p.r(T)}$$$RNA1{StrandType:ss}|RNA2{StrandType:as}$` ?
Response: 45%

// data source = the OligoGym collection
